Data origin, for the record: patent US20180170941A1

Biological target: α5β3γ2 GABAA receptors (Ltk cell membranes) (Homo sapiens, UniProt P18507+P31644)
Construct: membranes
Sequence (P31644 32-462): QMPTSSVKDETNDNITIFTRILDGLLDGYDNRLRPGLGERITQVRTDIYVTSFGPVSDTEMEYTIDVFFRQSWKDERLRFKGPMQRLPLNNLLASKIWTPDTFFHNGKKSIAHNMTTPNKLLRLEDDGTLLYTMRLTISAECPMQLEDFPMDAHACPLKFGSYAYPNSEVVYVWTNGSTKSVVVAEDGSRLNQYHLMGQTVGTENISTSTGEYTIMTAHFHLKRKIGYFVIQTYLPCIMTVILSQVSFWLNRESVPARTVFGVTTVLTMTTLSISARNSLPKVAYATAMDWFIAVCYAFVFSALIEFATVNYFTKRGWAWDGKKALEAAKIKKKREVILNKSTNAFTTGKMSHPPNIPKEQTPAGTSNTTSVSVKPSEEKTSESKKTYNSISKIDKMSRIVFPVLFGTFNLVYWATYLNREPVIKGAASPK
Sequence (P28472 26-473 partner): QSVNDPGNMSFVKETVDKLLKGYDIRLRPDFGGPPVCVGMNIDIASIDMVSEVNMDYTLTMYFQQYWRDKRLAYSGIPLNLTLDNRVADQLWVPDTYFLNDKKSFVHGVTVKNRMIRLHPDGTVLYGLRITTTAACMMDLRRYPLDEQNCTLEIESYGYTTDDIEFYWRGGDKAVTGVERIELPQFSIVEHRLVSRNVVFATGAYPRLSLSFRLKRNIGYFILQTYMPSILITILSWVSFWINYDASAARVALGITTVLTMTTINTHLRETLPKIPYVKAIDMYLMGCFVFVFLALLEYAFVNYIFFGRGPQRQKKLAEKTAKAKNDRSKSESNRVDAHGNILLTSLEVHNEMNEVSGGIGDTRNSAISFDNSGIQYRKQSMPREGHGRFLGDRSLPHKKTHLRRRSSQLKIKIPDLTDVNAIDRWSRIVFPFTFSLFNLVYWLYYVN
Sequence (P18507 40-475): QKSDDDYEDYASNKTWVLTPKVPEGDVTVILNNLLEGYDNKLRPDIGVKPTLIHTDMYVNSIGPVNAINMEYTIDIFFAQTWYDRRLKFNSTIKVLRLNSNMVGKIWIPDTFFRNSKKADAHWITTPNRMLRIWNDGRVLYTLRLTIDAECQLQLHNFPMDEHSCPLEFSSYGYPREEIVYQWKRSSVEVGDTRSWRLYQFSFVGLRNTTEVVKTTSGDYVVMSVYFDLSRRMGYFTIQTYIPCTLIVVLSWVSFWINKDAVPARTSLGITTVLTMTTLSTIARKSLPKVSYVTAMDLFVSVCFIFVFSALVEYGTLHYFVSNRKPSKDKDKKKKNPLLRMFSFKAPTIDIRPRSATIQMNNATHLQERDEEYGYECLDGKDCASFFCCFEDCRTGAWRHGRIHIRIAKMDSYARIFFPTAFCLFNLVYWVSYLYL
Assay: Binding activity of test compounds on GABAAR: inhibition of [3H]Ro15-1788 binding
Conditions: GABA α5 Binding Ki Values, inhibition of [3H]Ro15-1788 binding; reported as ranges
Each item that follows carries a reported Ki.

Some compounds with recorded Ki:
Cc1nnn2c1Cc1c(C(N)=O)ncn1-c1ccccc1-2	> 1000 nM
Cc1nnn2c1Cc1c(C(=O)OCC(F)(F)F)ncn1-c1ccc(F)cc1-2	< 100 nM
CC(C)OCc1nnc2n1Cc1c(C3=N[C@@H](c4ccccc4F)CO3)ncn1-c1ccc(Cl)cc1-2	100 to 1000 nM
COCc1nnc2n1Cc1c(C3=N[C@@H](c4ccc(OC)cc4)CO3)ncn1-c1ccc(Cl)cc1-2	< 100 nM

Record summary for Cc1nc(-c2ncn3c2Cn2c(COc4ccccc4)nnc2-c2cc(F)ccc2-3)no1 : reported Ki = < 100 nM

Record summary for COc1ccc2c(c1)-c1nnc(COC3CCCC3)n1Cc1c(-c3noc(C(C)C)n3)ncn1-2 : reported Ki = < 100 nM

Record summary for COCc1nnc2n1Cc1c(C3=NC[C@@H](C)O3)ncn1-c1ccc(Cl)cc1-2 : reported Ki = < 100 nM

Record summary for CCOC(=O)c1ncn2c1Cn1c(COc3ccccc3)nnc1-c1cc(F)ccc1-2 : reported Ki = < 100 nM

Record summary for Cc1ccc(S(=O)(=O)c2ncn3c2Cc2c(C)nnn2-c2cc(F)ccc2-3)cc1 : reported Ki = 100 to 1000 nM

Record summary for C#Cc1ccc2c(c1)-c1nnc(COC)n1Cc1c(C3=N[C@H](C(C)C)CO3)ncn1-2 : reported Ki = 100 to 1000 nM

Record summary for CCOC(=O)c1ncn2c1Cn1c(COc3ccc(F)cc3)nnc1-c1cc(OC)ccc1-2 : reported Ki = < 100 nM

###

Biological target: α5β3γ2 GABAA receptors (Ltk cell membranes) (Homo sapiens, UniProt P18507+P31644)
Construct: membranes
Assay: Binding activity of test compounds on GABAAR: inhibition of [3H]Ro15-1788 binding
Conditions: GABA α5 Binding Ki Values, inhibition of [3H]Ro15-1788 binding; reported as ranges
pKi: −log10 of the molar value.
Each item that follows carries a reported pKi.

CC(C)OCc1nnc2n1Cc1c(C3=N[C@@H](c4ccc(F)cc4)CO3)ncn1-c1ccc(Cl)cc1-2	> 7.00
CCC(=O)c1ncn2c1Cc1c(C)nnn1-c1ccccc1-2	6.00 to 7.00
COc1ccc2c(c1)-n1nncc1Cc1c(C#Cc3ccccc3F)ncn1-2	> 7.00
C#Cc1ncn2c1C(Cc1ccccc1F)c1cnnn1-c1cc(OC)ccc1-2 (stereo not drawn)	> 7.00
COc1ccc(C#Cc2ncn3c2Cc2cnnn2-c2cc(Cl)ccc2-3)cc1	> 7.00
COc1ccc2c(c1)-n1nnc(CN3CCCC3)c1Cc1c(-c3nc(C(C)C)no3)ncn1-2	6.00 to 7.00
CCOCc1nnc2n1Cc1c(-c3cc(C)no3)ncn1-c1ccc(Cl)cc1-2	> 7.00
Fc1ccc2c(c1)-n1cnc(Br)c1Cc1c(Cc3ccccc3)nnn1-2	< 6.00

Switching to the query record.
Record summary for COc1ccc2c(c1)-c1nnc(COC(C)(C)C)n1Cc1c(-c3noc(C(C)C)n3)ncn1-2 : reported pKi = 6.00 to 7.00
